- system.tested: T1, Pin3, Q06449
- T1 sequence (Q06449 53-122, looked up): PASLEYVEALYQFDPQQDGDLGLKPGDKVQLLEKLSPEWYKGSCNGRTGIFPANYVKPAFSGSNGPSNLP
- procedure.text: SPOT array
- experimental.setup: median of control spots 2171
measured.metric: SPOT intensity
// response body must contain only the number

// solved cases for SPOT intensity follow
Which SPOT intensity is listed for "APERAVPILPPRNNV" ?
13

Which SPOT intensity is listed for "GRLRPKRIAPWHLIQ" ?
5

Which SPOT intensity is listed for "HHNRRKPLEVYFKAT" ?
20

Others:
Which SPOT intensity is listed for "HVRRSILALPLGVLL" ?
2

Which SPOT intensity is listed for "NNQRRKPLLLNIGDH" ?
0

Which SPOT intensity is listed for "NPTKSPPPPPSPSTM" ?
109

Which SPOT intensity is listed for "QNTPPLPPKPKSPHL" ?
0

Which SPOT intensity is listed for "YVRRRPRVRLEPLLS" ?
2
